B1: CPEB3 Ribozyme (parent)
chain: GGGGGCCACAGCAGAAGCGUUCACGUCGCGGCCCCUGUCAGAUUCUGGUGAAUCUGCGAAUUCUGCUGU

Variants of: B1
Test: self-cleavage, relative activity (ratio to wild type); higher = more cleavage; co-transcriptional
# if value of self-cleavage reaches 0.4, tag fulfilled; if it stays below, tag not fulfilled

I'd appreciate it if you could say whether A16C U53C has self-cleavage at least equal to 0.4. not fulfilled

I'd appreciate it if you could say whether G11A G48U has self-cleavage at least equal to 0.4. fulfilled

I'd appreciate it if you could say whether C34U U64C has self-cleavage at least equal to 0.4. fulfilled

I'd appreciate it if you could say whether G25A U43A has self-cleavage at least equal to 0.4. not fulfilled

I'd appreciate it if you could say whether A15G G28A has self-cleavage at least equal to 0.4. not fulfilled

New cases:
I'd appreciate it if you could say whether C39U U53C has self-cleavage at least equal to 0.4. not fulfilled

I'd appreciate it if you could say whether G1U U64G has self-cleavage at least equal to 0.4. not fulfilled

I'd appreciate it if you could say whether A15G U43C has self-cleavage at least equal to 0.4. fulfilled

I'd appreciate it if you could say whether G17C A52G has self-cleavage at least equal to 0.4. not fulfilled

I'd appreciate it if you could say whether C32A G58C has self-cleavage at least equal to 0.4. fulfilled

I'd appreciate it if you could say whether A23G G37C has self-cleavage at least equal to 0.4. not fulfilled

I'd appreciate it if you could say whether U53C U55A has self-cleavage at least equal to 0.4. not fulfilled

I'd appreciate it if you could say whether G47A A51U has self-cleavage at least equal to 0.4. fulfilled

I'd appreciate it if you could say whether A15C U20G has self-cleavage at least equal to 0.4. not fulfilled

I'd appreciate it if you could say whether A59G G68U has self-cleavage at least equal to 0.4. fulfilled

I'd appreciate it if you could say whether C7U C57A has self-cleavage at least equal to 0.4. not fulfilled
